Molecular target: T1, B-cat-Halo (beta-catenin HaloTag Nano-BRET construct) (UniProt P35222 1-781)
T1 sequence (looked up): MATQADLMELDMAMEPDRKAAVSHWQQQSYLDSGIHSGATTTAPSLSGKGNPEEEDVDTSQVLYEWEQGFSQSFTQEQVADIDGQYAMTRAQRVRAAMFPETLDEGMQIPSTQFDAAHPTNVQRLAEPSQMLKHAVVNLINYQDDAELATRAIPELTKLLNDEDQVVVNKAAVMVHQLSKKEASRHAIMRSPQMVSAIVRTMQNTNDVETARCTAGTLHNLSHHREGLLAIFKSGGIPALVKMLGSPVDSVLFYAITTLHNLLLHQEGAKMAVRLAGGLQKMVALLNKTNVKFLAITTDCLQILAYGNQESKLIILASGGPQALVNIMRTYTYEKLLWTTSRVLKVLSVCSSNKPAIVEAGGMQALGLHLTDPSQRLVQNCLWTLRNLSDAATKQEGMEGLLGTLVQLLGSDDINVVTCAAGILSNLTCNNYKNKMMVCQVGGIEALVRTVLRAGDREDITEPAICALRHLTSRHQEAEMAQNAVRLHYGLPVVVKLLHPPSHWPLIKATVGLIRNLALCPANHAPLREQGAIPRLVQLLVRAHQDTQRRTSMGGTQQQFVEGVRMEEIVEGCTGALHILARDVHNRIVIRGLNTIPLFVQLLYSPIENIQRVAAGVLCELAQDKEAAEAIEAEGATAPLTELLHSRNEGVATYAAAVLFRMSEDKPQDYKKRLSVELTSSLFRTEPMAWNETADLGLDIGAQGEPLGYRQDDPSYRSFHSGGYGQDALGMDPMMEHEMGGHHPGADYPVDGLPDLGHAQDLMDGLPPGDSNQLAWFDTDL
Experiment: cell-based or functional assay
Starred links: 1 amine or outer side, 2 acyl side, 3 side chain; linkers in the order of their positions; H or OH if unused. Positions of bridges follow the written chain, without caps; N, C: chain ends. Non-standard residues stand in square brackets, D forms with d. S6 = (S)-2-amino-2-methyloct-7-enoic acid, C=CCCCC[C@](C)(N[*:1])C(=O)[*:2]; S3 = (S)-2-amino-2-methylpent-4-enoic acid, C=CC[C@](C)(N[*:1])C(=O)[*:2]; Bta = N[C@@H](Cc1csc2ccccc12)C(=O)O; αAllylPro = C=CC[C@@]1(C(=O)O)CCCN1; tBuAla = CC(C)(C)C[C@H](N)C(=O)O; 3Thi = N[C@@H](Cc1ccsc1)C(=O)O; Aib = CC(C)(N)C(=O)O
value.kind: NanoBRET Abs IC50

Ac-[αAllylPro]D[tBuAla][S3]DDAAFL[Aib][3Thi][Bta]Q-NH2 (staple 1-4; not fully specified; printed as Ac-PL3-Asp-Npg-S3-Asp-Asp-Ala-Ala-Phe-Leu-Aib-3Thi-BztA-Gln-NH2; also: staple -CH=CH- reduced to -CH2-CH2-) [I-1983] = > 20 µM
Ac-[αAllylPro]D[tBuAla][S6]DDAAFL[Aib][3Thi][Bta]Q-NH2 (staple 1-4) [I-1978] = > 20 µM

The record that follows has no NanoBRET Abs IC50 shown yet.
Item Ac-[αAllylPro]D[tBuAla][S3]DDAAFL[Aib][3Thi][Bta]Q-NH2 (staple 1-4) [I-1980] has what recorded NanoBRET Abs IC50?
> 20 µM
